- TARGET OR TEST SYSTEM: UniProt:P21439
- Sequence (P21439 whole entry): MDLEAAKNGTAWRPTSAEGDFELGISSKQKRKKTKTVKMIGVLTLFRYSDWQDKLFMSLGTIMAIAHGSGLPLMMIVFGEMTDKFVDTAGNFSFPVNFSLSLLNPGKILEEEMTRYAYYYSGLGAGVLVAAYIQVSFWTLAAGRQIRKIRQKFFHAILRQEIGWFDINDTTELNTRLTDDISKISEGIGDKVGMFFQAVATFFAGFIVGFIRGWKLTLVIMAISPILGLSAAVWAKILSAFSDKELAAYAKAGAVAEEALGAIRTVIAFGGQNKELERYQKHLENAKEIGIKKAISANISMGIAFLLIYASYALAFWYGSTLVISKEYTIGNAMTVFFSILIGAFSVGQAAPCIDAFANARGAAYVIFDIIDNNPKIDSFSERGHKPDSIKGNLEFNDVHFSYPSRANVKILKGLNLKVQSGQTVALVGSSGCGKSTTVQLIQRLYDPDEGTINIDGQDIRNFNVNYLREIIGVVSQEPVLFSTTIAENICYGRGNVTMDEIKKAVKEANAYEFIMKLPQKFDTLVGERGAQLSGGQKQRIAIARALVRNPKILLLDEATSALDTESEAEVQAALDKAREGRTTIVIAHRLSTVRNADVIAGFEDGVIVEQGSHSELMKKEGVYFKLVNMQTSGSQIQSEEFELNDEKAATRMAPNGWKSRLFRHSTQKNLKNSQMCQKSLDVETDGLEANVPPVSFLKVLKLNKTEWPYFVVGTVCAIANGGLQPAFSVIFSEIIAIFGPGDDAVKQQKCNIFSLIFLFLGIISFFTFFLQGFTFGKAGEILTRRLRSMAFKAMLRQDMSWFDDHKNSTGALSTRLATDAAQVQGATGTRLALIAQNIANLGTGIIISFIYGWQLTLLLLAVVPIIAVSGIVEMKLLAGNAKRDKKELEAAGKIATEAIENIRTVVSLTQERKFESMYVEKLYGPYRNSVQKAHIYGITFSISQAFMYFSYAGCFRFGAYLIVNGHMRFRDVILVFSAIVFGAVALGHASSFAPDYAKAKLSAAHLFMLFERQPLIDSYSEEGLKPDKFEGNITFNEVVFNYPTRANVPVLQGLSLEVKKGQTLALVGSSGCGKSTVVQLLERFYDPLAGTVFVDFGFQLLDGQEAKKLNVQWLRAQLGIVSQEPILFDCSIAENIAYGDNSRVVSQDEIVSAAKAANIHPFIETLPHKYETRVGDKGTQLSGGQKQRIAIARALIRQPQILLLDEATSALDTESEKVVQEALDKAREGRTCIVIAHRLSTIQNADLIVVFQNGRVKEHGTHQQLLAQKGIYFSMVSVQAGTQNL
- METHOD: ABCB4 WT assay: HiBit protein expression
- CONDITIONS USED: HEK-293 cells stably expressing HiBit-tagged ABCB4 WT; 24 h treatment; top concentration 30 μM; read-out: ABCB4 WT EC50, Emax
pEC50: −log10 of the molar value.
PROPERTY NAME: pEC50

{"columns": ["COMPOUND", "PROPERTY NAME", "RECORDED MEASUREMENT"],
 "data": [
  ["Cc1cc(C)c(Oc2nc(-c3ccc(C#N)nc3)ccc2NS(C)(=O)=O)c(C)c1", "pEC50", "≤ 4.60"],
  ["Cc1cc(C(F)(F)F)nc(C2CC2)c1Oc1nc(-c2cncc(C#N)c2)ccc1NS(C)(=O)=O", "pEC50", "> 6.00"],
  ["Cc1nc(C(F)(F)F)nc(C)c1Oc1nc(-c2cncc(C#N)c2)ccc1NS(C)(=O)=O", "pEC50", "> 6.00"],
  ["Cc1cc(C)c(Oc2nc(-c3cncc(C4CN(C)C4)c3)ccc2NS(C)(=O)=O)c(C)n1", "pEC50", "≤ 4.60"],
  ["Cc1cc(C)c(Oc2nc(-c3cncc(C#N)c3)ncc2NS(C)(=O)=O)c(C)n1", "pEC50", "> 6.00"],
  ["Cc1cc(C(F)(F)F)nc(C2CC2)c1Oc1nc(-c2cncc(C#N)c2)ccc1S(=N)(=O)C1CCOCC1 (stereo not drawn)", "pEC50", "≤ 4.60"],
  ["Cc1cc(C)c(Oc2nc(-c3ccc(C#N)nc3C)ccc2NS(C)(=O)=O)c(C)n1", "pEC50", "> 6.00"],
  ["CNS(=O)(=O)c1ccc(-c2cncc(C#N)c2)nc1Oc1c(C)nc(C(F)F)nc1C1CC1", "pEC50", "5.00 to 6.00"],
  ["Cc1cc(C)c(Oc2nc(N3CC4CC(C3)N4C(=O)C3CC3)ccc2NS(C)(=O)=O)c(C)c1", "pEC50", "5.00 to 6.00"],
  ["Cc1cc(C)c(Oc2nc(N3CC4(CN(C(=O)C5CC5)C4)C3)ccc2NS(C)(=O)=O)c(C)c1", "pEC50", "≤ 4.60"],
  ["Cc1nn(C)c(C)c1Oc1nc(-c2cncc(C#N)c2)ccc1NS(C)(=O)=O", "pEC50", "> 6.00"],
  ["Cc1cc(C)c(Oc2cc(-c3cncc(Cl)c3)ncc2NS(C)(=O)=O)c(C)c1", "pEC50", "≤ 4.60"],
  ["Cc1cc(C)c(Oc2nc(-c3cncc(Cl)c3)cnc2NS(C)(=O)=O)c(C)c1", "pEC50", "≤ 4.60"],
  ["Cc1nc(C(F)(F)F)nc(C2CC2)c1Oc1nc(-c2cncc(C#N)c2)ccc1S(=N)(=O)C1CC1 (stereo not drawn)", "pEC50", "≤ 4.60"],
  ["Cc1nc(C(F)(F)F)nc(C2CC2)c1Oc1nc(-c2cncc(C#N)c2)ccc1S(=O)(=O)Nc1cccnc1", "pEC50", "≤ 4.60"]
]}
